Measured KD ratio to GLS3000 by item
TARGET_OR_SYSTEM: CD3 epsilon homodimer protein (UniProt P07766)
Sequence (P07766 23-126): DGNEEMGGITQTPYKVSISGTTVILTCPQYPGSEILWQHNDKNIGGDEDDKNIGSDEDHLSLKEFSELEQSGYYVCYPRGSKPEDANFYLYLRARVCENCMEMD
ASSAY_METHOD_TEXT: SPR, antibody over immobilised CD3e homodimer
Keep the answer to the number alone.

Solved cases below.
CE115HA000/GLS3000 H34R (antibody, IgG1, name in Kabat numbering, V domains shown) VH: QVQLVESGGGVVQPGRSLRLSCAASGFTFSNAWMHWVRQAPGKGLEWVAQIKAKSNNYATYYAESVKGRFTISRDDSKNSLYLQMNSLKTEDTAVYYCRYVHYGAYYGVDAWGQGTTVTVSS VL: DIVMTQSPLSLPVTPGEPASISCRSSQSLVHSNRNTYLRWYQQKPGQAPRLLIYKVSNRFSGVPDRFSGSGSGTDFTLKISRVEAEDVGVYYCGQGTQVPYTFGQGTKLEIK: 85800
CE115HA000/GLS3000 N28D (antibody, IgG1, name in Kabat numbering, V domains shown) VH: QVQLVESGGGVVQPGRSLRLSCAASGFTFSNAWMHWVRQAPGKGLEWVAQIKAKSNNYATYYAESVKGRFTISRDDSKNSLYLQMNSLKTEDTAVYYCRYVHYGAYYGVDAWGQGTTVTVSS VL: DIVMTQSPLSLPVTPGEPASISCRSSQSLVHSDRNTYLHWYQQKPGQAPRLLIYKVSNRFSGVPDRFSGSGSGTDFTLKISRVEAEDVGVYYCGQGTQVPYTFGQGTKLEIK: 4460
CE115HA000/GLS3000 G91S (antibody, IgG1, name in Kabat numbering, V domains shown) VH: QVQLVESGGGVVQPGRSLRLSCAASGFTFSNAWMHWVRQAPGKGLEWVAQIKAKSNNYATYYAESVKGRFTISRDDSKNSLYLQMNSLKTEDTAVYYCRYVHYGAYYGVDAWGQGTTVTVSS VL: DIVMTQSPLSLPVTPGEPASISCRSSQSLVHSNRNTYLHWYQQKPGQAPRLLIYKVSNRFSGVPDRFSGSGSGTDFTLKISRVEAEDVGVYYCGQSTQVPYTFGQGTKLEIK: 72100

API: the following record is the query input.
For the binder CE115HA000/GLS3000 H27dD (antibody, IgG1, name in Kabat numbering, V domains shown) VH: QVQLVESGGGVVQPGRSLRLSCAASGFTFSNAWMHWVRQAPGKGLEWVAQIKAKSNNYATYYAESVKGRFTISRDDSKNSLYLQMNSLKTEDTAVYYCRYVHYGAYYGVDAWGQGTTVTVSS VL: DIVMTQSPLSLPVTPGEPASISCRSSQSLVDSNRNTYLHWYQQKPGQAPRLLIYKVSNRFSGVPDRFSGSGSGTDFTLKISRVEAEDVGVYYCGQGTQVPYTFGQGTKLEIK , what KD ratio to GLS3000 is on record?
13600
